Target: GABAA Cl channel
Experiment: Competitive binding assay, GABAA Cl channel (3H-TBOB), bovine hippocampus
Details: increasing concentration, Hill plots, read-out: GABAA CI Channel Binding (IC50)
READOUT_KIND: pIC50
Worth noting: pIC50 values are minus log10 of concentrations stated in mol/L.

Study these solved cases before continuing.
| SMILES_RECORD | pIC50 |
| --- | --- |
| CC(C)c1cc(C(=O)c2ccc([N+](=O)[O-])cc2)cc(C(C)C)c1O | 6.30 |
| CC(C)c1cc(C(=O)c2ccc(I)cc2)cc(C(C)C)c1O | 6.24 |
| CC(C)c1cc(C(=O)c2ccc(C(F)(F)F)cc2)cc(C(C)C)c1O | 6.24 |
| CC(C)c1cccc(C(C)C)c1O | 5.31 |
| CC(C)c1cc(C(=O)c2ccc(C(F)(F)F)c(F)c2)cc(C(C)C)c1O | 5.90 |
| CC(C)c1cc(C(=O)c2cc(F)cc(C(F)(F)F)c2)cc(C(C)C)c1O | 5.33 |
| CC(C)c1cc(C(=O)c2cccc(C(F)(F)F)c2)cc(C(C)C)c1O | 5.41 |

Next:
query: Find the measured pIC50 of CC(C)c1cc(C(=O)c2cc(C(F)(F)F)cc(C(F)(F)F)c2)cc(C(C)C)c1O and report it.
result: 4.67
